- Assay Target: recombinant mTOR (FLAG-tagged, residues 1362-2549) (Homo sapiens)
- Sequence (P42345 1362-2549): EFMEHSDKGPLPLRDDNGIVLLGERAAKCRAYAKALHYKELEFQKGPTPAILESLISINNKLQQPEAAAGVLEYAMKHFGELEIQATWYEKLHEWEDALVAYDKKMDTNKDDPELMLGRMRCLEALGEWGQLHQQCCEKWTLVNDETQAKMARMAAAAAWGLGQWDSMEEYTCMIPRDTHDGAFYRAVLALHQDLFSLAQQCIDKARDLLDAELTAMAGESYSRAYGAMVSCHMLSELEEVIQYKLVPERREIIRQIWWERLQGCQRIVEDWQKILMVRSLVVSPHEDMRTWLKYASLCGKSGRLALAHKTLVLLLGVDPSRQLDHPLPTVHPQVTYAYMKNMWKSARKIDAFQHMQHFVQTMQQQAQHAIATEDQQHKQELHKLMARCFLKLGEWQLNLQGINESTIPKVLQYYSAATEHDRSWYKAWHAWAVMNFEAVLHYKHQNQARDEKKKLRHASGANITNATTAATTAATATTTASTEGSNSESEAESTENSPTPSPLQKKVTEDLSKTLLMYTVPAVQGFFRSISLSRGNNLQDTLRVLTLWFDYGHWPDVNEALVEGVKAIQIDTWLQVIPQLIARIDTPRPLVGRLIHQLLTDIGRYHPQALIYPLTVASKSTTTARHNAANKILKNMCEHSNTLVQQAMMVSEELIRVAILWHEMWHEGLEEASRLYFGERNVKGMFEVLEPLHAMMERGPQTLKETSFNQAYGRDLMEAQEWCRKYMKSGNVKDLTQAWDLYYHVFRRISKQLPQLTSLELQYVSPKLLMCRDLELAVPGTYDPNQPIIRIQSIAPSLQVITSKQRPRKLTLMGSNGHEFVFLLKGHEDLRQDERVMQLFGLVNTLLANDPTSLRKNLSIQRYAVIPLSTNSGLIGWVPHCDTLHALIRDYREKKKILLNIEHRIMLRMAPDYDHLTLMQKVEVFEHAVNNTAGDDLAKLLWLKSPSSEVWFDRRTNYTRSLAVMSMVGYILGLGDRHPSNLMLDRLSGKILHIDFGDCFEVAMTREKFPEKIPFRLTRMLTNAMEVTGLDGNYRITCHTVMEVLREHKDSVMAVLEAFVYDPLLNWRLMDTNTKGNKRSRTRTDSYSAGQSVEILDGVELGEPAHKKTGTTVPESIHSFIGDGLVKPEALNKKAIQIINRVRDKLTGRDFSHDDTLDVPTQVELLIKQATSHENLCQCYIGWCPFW
- Experimental Protocol: In vitro mTOR kinase assay (Test (a), AlphaScreen)
- Setup Conditions: ATP 20 μM, read-out: Test (a): IC50 versus mTOR kinase
pIC50: −log10 of the molar value.
Measured pIC50 determines class: bin A: < 6; bin B: ≥ 6 and < 7; bin C: ≥ 7

# example entries with known answers
CNC(=O)NC1CCN(c2nc(CS(C)(=O)=O)cc(N3CCOC[C@@H]3C)n2)CC1	bin A
C[C@H]1COCCN1c1cc(CS(C)(=O)=O)nc(-c2ccc(NC(=O)N(C)C)cc2)n1	bin B

Class (by measured pIC50) for CN(Cc1ccccc1)C(=O)Nc1ccc(-c2nc(CS(C)(=O)=O)cc(N3CCOCC3)n2)cc1 [Example 45r]
bin B

Class (by measured pIC50) for `C[C@H]1COCCN1c1cc(CN2CCOCC2)nc(-c2ccc(NC(=O)Nc3ccccc3)cc2)n1`
bin B

Class (by measured pIC50) for C[C@H]1COCCN1c1cc(C(C)(C)S(C)(=O)=O)nc(-c2ccc(NC(=O)NC3CCN(C)CC3)cc2)n1 [Example 21j]
bin B

Class (by measured pIC50) for C[C@H]1COCCN1c1cc(CS(C)(=O)=O)nc(-n2ccc(NC(=O)Nc3ccc(F)cc3)n2)n1 [Example 25b]
bin A

Class (by measured pIC50) for O=C(Nc1ccc(-c2nc(CS(=O)(=O)c3ccccc3)cc(N3CCOCC3)n2)cc1)NC1CC1 [Example 20b]
bin B

Class (by measured pIC50) for C[C@H]1COCCN1c1cc(C(C)(C)S(C)(=O)=O)nc(-c2ccc(NC(=O)Nc3ccon3)cc2)n1 [Example 24s]
bin C

Class (by measured pIC50) for `C[C@H]1COCCN1c1cc(C(C)(C)O)nc(-c2ccc(NC(=O)NC3CC3)cc2)n1`
bin C

Class (by measured pIC50) for C[C@H]1COCCN1c1cc(C(C)(C)S(C)(=O)=O)nc(-c2ccc(NC(=O)NCCO)cc2)n1 [Example 24bj]
bin C
